- System: SW982
- RUN_DESCRIPTION: Cytotoxicity against human SW982 cells assessed as reduction in cell viability incubated for 24 hrs by CellTiter-Glo luminescent cell viability assay
- Format: functional, cell-based
- CONDITION: SW982, 24 h
pIC50: −log10 of the molar value.
Short version: pIC50 at least 5 is 1.0, less is 0.0.

Data request: Is the recorded value of pIC50 equal to or greater than 5 for this compound? O=C(O)c1ccc(NC2=C(Cl)C(=O)c3ccccc3C2=O)cc1
Data returned: 1.0

Data request: Same for CC(C)=CC[C@@H](O)C1=CC(=O)c2c(O)ccc(O)c2C1=O
Data returned: 1.0

Data request: Follow-up entry: O=C(O)c1cccc(NC2=C(Cl)C(=O)c3ccccc3C2=O)c1
Data returned: 1.0

Data request: And the next one, CCN(CC)CCNC(=O)c1c(C)[nH]c(/C=C2\C(=O)Nc3ccc(F)cc32)c1C ?
Data returned: 0.0

Data request: Field entry: CC(SC1=CC(=O)c2ccccc2C1=O)C(=O)O (stereo unspecified)
Data returned: 0.0

Data request: Query COC1=CC(=O)c2ccccc2C1=O next
Data returned: 0.0

* * *

- ASSAYED_SYSTEM: Neutrophil elastase (Homo sapiens)
- Sequence (whole entry): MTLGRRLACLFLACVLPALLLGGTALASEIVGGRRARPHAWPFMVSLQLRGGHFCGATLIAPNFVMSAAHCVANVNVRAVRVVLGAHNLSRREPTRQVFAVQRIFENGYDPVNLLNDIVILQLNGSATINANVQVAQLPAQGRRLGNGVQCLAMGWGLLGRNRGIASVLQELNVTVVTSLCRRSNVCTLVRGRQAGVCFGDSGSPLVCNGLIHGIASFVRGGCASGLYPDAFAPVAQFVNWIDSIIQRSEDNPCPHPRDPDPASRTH
- RUN_DESCRIPTION: Inhibition of recombinant HNE (unknown origin) at <50 uM using N-methylsuccinyl-Ala-Ala-Pro-Val-7-amino-4-methylcoumarin, as a substrate measured every 30 sec for 10 mins by fluorometric assay
Active and inactive are the calls of the source. The calls are words filed in the database; no cut-off is given here.
OBSERVED_PROPERTY: inhibition

Example results:
Data request: Report inhibition for CC1=C(SCCO)C(=O)c2ccccc2C1=O tested on Neutrophil elastase (Homo sapiens).
Data returned: inactive

Data request: Likewise for O=C(O)CSC1=CC(=O)c2ccccc2C1=O ?
Data returned: inactive

Data request: Likewise for COCCSC1=C(C)C(=O)c2ccccc2C1=O ?
Data returned: inactive

Data request: Again, but for O=C(O)CNC1=C(Cl)C(=O)c2ccccc2C1=O
Data returned: inactive

Data request: Continue with O=C(O)c1cccc(NC2=C(Cl)C(=O)c3ccccc3C2=O)c1
Data returned: inactive

Data request: Check O=C1C(Cl)=C(NCCCO)C(=O)c2ccccc21 too.
Data returned: inactive

Data request: Moving on to O=C1C(Cl)=C(NCCO)C(=O)c2ccccc21
Data returned: inactive

Data request: // next record COC(=O)c1ccc(NC2=C(Cl)C(=O)c3ccccc3C2=O)cc1
Data returned: inactive

Others:
Data request: Entry COC(=O)c1ccc(NC2=C(N3CCCCC3)C(=O)c3ccccc3C2=O)cc1 , system Neutrophil elastase (Homo sapiens): what inhibition was measured?
Data returned: inactive

Data request: Please answer likewise for COC1=C(C)C(=O)c2ccccc2C1=O
Data returned: inactive

Data request: Also need O=C1C(SCCO)=C(SCCO)C(=O)c2ccccc21 , thanks.
Data returned: inactive
